# system: SARS-CoV-2 Mac1 (Severe acute respiratory syndrome coronavirus 2)
# assaySummary: biochemical
# assaySetup: 100 µM; inhibitor
Structures can show the parent of a compound that is named as a salt.
Answer each item with its documented %inhibition.
Express your answer in %, writing the number without its unit.

QUERY: What measured %inhibition goes with Clc1ccc(CCC(Cn2ccnc2)Sc2c(Cl)cccc2Cl)cc1 (stereo not shown) [Butoconazole] ?
RESULT: 13.63

QUERY: What measured %inhibition goes with CCN(CC)CCNC(=O)c1c(C)[nH]c(/C=C2\C(=O)Nc3ccc(F)cc32)c1C [Sunitinib] ?
RESULT: 31.86

QUERY: What measured %inhibition goes with CS(=O)(=O)CCNCc1ccc(-c2ccc3ncnc(Nc4ccc(OCc5cccc(F)c5)c(Cl)c4)c3c2)o1 [Lapatinib ditosylate monohydrate] ?
RESULT: 13.25

QUERY: What measured %inhibition goes with COc1ccc(C(CN(C)C)C2(O)CCCCC2)cc1 (stereo not shown) [Venlafaxine HCl] ?
RESULT: 0

QUERY: What measured %inhibition goes with COc1cc2nccc(Oc3ccc(NC(=O)NC4CC4)c(Cl)c3)c2cc1C(N)=O [lenvatinib Mesylate] ?
RESULT: 0

QUERY: What measured %inhibition goes with CNCC[C@H](Oc1cccc2ccccc12)c1cccs1 [Duloxetine] ?
RESULT: 8.877

QUERY: What measured %inhibition goes with COC(=O)c1ccc2c(C(=Nc3ccc(N(C)C(=O)CN4CCN(C)CC4)cc3)c3ccccc3)c(O)[nH]c2c1 [Nintedanib (BIBF 1120)] ?
RESULT: 17.91

QUERY: What measured %inhibition goes with CC1CNc2c(cccc2S(=O)(=O)N[C@@H](CCCNC(=N)N)C(=O)N2CC[C@@H](C)C[C@@H]2C(=O)O)C1 (stereo partly shown) [Argatroban Monohydrate] ?
RESULT: 0

QUERY: What measured %inhibition goes with Nc1ccc(S(=O)(=O)Nc2ncccn2)cc1 [Sulfadiazine] ?
RESULT: 29.9

QUERY: What measured %inhibition goes with COCCCN1CCC(NC(=O)c2cc(Cl)c(N)c3c2OCC3)CC1 [Prucalopride Succinate] ?
RESULT: 23.93

* * *

# system: SARS-CoV-2 Mac1 (Severe acute respiratory syndrome coronavirus 2)
# assaySummary: biochemical
# assaySetup: read-out: %inhibition
Counter-ions that a name gives are not always drawn.
Answer each item with its documented inhibition at 100 µM.
In your response, the unit should come after the numeric value.

QUERY: What measured inhibition at 100 µM goes with `Cc1c(OCC(F)(F)F)ccnc1C[S@@+]([O-])c1nc2ccccc2[nH]1` ?
RESULT: 13.9%

QUERY: What measured inhibition at 100 µM goes with COc1cccc2c1C(=O)c1c(O)c3c(c(O)c1C2=O)C[C@@](O)(C(C)=O)C[C@@H]3O[C@H]1C[C@H](N)[C@H](O)[C@H](C)O1 [Daunorubicin HCl] ?
RESULT: 30.2%

QUERY: What measured inhibition at 100 µM goes with N#CC(c1ccc(Cl)cc1)c1c(Cl)cc(-n2ncc(=O)[nH]c2=O)cc1Cl (centres unmarked) ?
RESULT: 0%

QUERY: What measured inhibition at 100 µM goes with CC1=Nc2ccc(Cl)cc2S(=O)(=O)N1 [Diazoxide] ?
RESULT: 0%

QUERY: What measured inhibition at 100 µM goes with CCN1CCCC1CNC(=O)c1cc(S(N)(=O)=O)ccc1OC (centres unmarked) [Sulpiride] ?
RESULT: 0%

QUERY: What measured inhibition at 100 µM goes with Cc1cccc(Cc2c[nH]cn2)c1C [Detomidine HCl] ?
RESULT: 0%

QUERY: What measured inhibition at 100 µM goes with `O=C(O)CCc1nc2ccccc2[nH]1` ?
RESULT: 7.67%

QUERY: What measured inhibition at 100 µM goes with CC(C)[N+]1(C)[C@@H]2CC[C@H]1C[C@@H](OC(=O)C(CO)c1ccccc1)C2 (some centres unmarked) [Ipratropium Bromide] ?
RESULT: 9.25%

QUERY: What measured inhibition at 100 µM goes with `CC(C)N(CCNC(=O)CN1CCCC1=O)C(C)C` ?
RESULT: 1.25%

QUERY: What measured inhibition at 100 µM goes with `Cc1nnc(NS(=O)(=O)c2ccc(N)cc2)s1` ?
RESULT: 15.9%

QUERY: What measured inhibition at 100 µM goes with CC(=O)OCC(=O)[C@@]1(O)[C@H](C)C[C@H]2[C@@H]3CCC4=CC(=O)C=C[C@]4(C)[C@@]3(F)[C@@H](O)C[C@@]21C [Dexamethasone Acetate] ?
RESULT: 0%

QUERY: What measured inhibition at 100 µM goes with CCCC(CCC)C(N)=O [Valpromide] ?
RESULT: 13.2%

QUERY: What measured inhibition at 100 µM goes with `CS(=O)(=O)N1CCN(Cc2cc3nc(-c4cccc5[nH]ncc45)nc(N4CCOCC4)c3s2)CC1` ?
RESULT: 10.2%

QUERY: What measured inhibition at 100 µM goes with CC(=O)O[C@H]1CC[C@@]2(C)C(=CC[C@@H]3[C@@H]2CC[C@]2(C)C(=O)CC[C@@H]32)C1 [Dehydroepiandrosterone acetate] ?
RESULT: 15.8%
